# targetOrTestSystem: MOP (μ-opioid receptor) (Homo sapiens)
# Construct: full-length receptor stably expressed in CHO-K1 cells (ChanTest)
# Sequence (P35372 whole entry): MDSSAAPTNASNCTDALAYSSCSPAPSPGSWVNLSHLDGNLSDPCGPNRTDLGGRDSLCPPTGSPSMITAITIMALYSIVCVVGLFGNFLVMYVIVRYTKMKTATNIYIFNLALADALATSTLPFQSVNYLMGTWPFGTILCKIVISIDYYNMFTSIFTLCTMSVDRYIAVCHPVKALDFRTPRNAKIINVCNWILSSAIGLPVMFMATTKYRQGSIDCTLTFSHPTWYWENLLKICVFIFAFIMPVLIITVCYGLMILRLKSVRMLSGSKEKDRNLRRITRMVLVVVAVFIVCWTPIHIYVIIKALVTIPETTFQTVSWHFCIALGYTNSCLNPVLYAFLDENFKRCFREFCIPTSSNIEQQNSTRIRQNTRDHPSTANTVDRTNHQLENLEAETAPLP
# assayRemarks: TR-FRET cAMP assay (LANCE Ultra), inhibition of forskolin-stimulated cAMP
measuredQuantity: EC50 (nM)

| smilesCode | readoutUnits | reportedResult |
| --- | --- | --- |
| CN(C(=O)/C=C/c1ccoc1)[C@@H]1CC[C@@]2(O)[C@H]3Cc4ccc(O)c5c4[C@@]2(CCN3CC2CC2)[C@H]1O5 | nM | 7.8 |

###

# targetOrTestSystem: DOP (δ-opioid receptor) (Homo sapiens)
# Construct: gene OPRD1; full-length receptor stably expressed in CHO-K1 cells (ChanTest)
# Sequence (P41143 whole entry): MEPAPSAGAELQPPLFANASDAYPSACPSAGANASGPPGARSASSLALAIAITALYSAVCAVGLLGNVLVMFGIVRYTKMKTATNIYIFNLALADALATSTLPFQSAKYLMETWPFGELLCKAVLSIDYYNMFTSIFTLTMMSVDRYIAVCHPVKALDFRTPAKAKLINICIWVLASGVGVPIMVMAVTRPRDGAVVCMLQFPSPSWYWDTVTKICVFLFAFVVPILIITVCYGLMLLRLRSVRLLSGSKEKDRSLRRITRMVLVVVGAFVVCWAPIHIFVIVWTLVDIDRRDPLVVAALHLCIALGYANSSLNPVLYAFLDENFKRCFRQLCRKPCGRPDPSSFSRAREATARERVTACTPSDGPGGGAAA
# assayRemarks: TR-FRET cAMP assay (LANCE Ultra), inhibition of forskolin-stimulated cAMP
# Format: cell-based
pEC50: −log10 of the molar value.

| compound | pEC50 |
| --- | --- |
| CN(C(=O)/C=C/c1ccoc1)[C@@H]1CC[C@@]2(O)[C@H]3Cc4ccc(O)c5c4[C@@]2(CCN3CC2CC2)[C@H]1O5 [Nalfurafine] | 6.88 |
